Data origin: ChEMBL document CHEMBL1132828

Test system: MT4
assay remarks: Compound was tested for reduction of the viability of mock infected MT-4 cell in test-I
Type: functional
experimental setup: Homo sapiens
Each entry below carries its recorded CC50.

smiles string	measured target	CC50
NCCCC[C@@H]1NC(=O)[C@H](CCCN=C(N)N)NC(=O)[C@H](Cc2ccc(O)cc2)NC(=O)[C@@H](NC(=O)[C@H](Cc2c[nH]c3ccccc23)NC(=O)[C@H](CCCN=C(N)N)NC(=O)[C@@H](N)CCCN=C(N)N)CSSC[C@@H](C(=O)N[C@@H](CCCN=C(N)N)C(=O)O)NC(=O)[C@H](CCCNC(N)=O)NC(=O)[C@H](CCCN=C(N)N)NC(=O)[C@H](Cc2ccc(O)cc2)NC(=O)[C@@H]2CCCN2C(=O)[C@@H](CCCCN)NC1=O	MT4	> 1 µM
NCCCC[C@H]1NC(=O)[C@H](CCCNC(N)=O)NC(=O)[C@H](CCCN=C(N)N)NC(=O)[C@H](Cc2ccc(O)cc2)NC(=O)[C@@H](NC(=O)[C@H](Cc2ccc3ccccc3c2)NC(=O)[C@H](CCCN=C(N)N)NC(=O)[C@@H](N)CCCN=C(N)N)CSSC[C@@H](C(=O)N[C@@H](CCCN=C(N)N)C(=O)O)NC(=O)[C@H](CCCNC(N)=O)NC(=O)[C@H](CCCN=C(N)N)NC(=O)[C@H](Cc2ccc(O)cc2)NC(=O)[C@@H]2CCCN2C1=O	MT4	> 80 µM
C[C@H]1NC(=O)[C@H](CCCCN)NC(=O)[C@H](CCCN=C(N)N)NC(=O)[C@H](Cc2ccc(O)cc2)NC(=O)[C@@H](NC(=O)[C@H](Cc2ccc3ccccc3c2)NC(=O)[C@H](CCCN=C(N)N)NC(=O)[C@@H](N)CCCN=C(N)N)CSSC[C@@H](C(=O)N[C@@H](CCCN=C(N)N)C(=O)O)NC(=O)[C@H](CCCNC(N)=O)NC(=O)[C@H](CCCN=C(N)N)NC(=O)[C@H](Cc2ccc(O)cc2)NC(=O)[C@@H]2CCCN2C1=O	MT4	> 80 µM
